GI50: recorded values
System: RPMI-8226
Assay: NCI tumour cell line growth inhibition, 48 h
Activity calls are given as the source filed them. No stated cut-off is given here; in the data, active = GI50 up to about 1.1 µM and inactive = higher.

Worked set:
Notebook: pull reported GI50 for RPMI-8226, entry CC(C)(C)C(=O)OCC1CCC(n2cnc3c(=O)[nH]c(N)nc32)O1 (stereo unspecified)
> 100 µM (inactive)

Please give the result for C=CC/C=C/Cc1csc(C(C)(C)C(O)C/C=C/C(=C)CCNC(=O)OC)n1 (stereo unspecified) too.
30.7 µM (inactive)

Please give the result for CCC1=CC2CN3CCc4c([nH]c5ccccc45)C(C(=O)OC)(C2)C13 (stereo unspecified) too.
18.5 µM (inactive)

Others:
Notebook: pull reported GI50 for RPMI-8226, entry CCNc1nc2c(=O)n(C)c(=O)n(C)c2s1
> 100 µM (inactive)

Please give the result for Cc1cc(C)c2c(=O)n(CC(O)CN3CCN(c4ncccn4)CC3)sc2n1 (stereo unspecified) too.
4.71 µM (inactive)

Please give the result for c1ccc(COC2C3COC(O3)C(OCc3ccccc3)C2OCc2ccccc2)cc1 (stereo unspecified) too.
12.2 µM (inactive)

Please give the result for O=C(O)CSCc1cccc2ccccc12 too.
> 100 µM (inactive)

Please give the result for CN1CCCS/C1=C1/SC(=S)N(c2ccccc2)C1=O too.
> 100 µM (inactive)

Please give the result for COc1cccc(NC(=O)C(=O)C2C=CCS2(=O)=O)c1 (stereo unspecified) too.
> 100 µM (inactive)

Please give the result for O=C1OC(CC(=O)c2ccc(F)cc2)C(Cl)=C1Cl (stereo unspecified) too.
34.2 µM (inactive)

Please give the result for Cc1cc(Nc2ccc(S(=O)(=O)O)c3cc(S(=O)(=O)O)cc(S(=O)(=O)O)c23)c2ccccc2n1 too.
> 100 µM (inactive)
